experiment: Phase I study Part A, single IV dose, plasma pharmacokinetics; type: in vivo, healthy male and female subjects; conditions: both sexes, human, plasma, iv, 600 mg, Treatment 600 mg NXL-104; Geo mean; read-out: Cmax
observable: Cmax (ng/mL)
Numeric only. Scale: ng/mL

Measured Cmax of NC(=O)[C@@H]1CC[C@@H]2CN1C(=O)N2OS(=O)(=O)[O-].[Na+] : 29500

----------
experiment: Phase I study Part A, single IV dose, plasma pharmacokinetics; assay type: in vivo, healthy male and female subjects; conditions: both sexes, human, plasma, iv, 600 mg, Treatment 600 mg NXL-104 + Ceftaroline fosamil 600 mg; Geo mean; read-out: Cmax
The following molecules are shown together with reported Cmax values.
Give the value in ng/mL but do not write ng/mL after it.

Worked set:
// Cmax value for CCO/N=C(\C(=O)N[C@@H]1C(=O)N2C(C(=O)[O-])=C(Sc3nc(-c4cc[n+](C)cc4)cs3)CS[C@H]12)c1nsc(N)n1 [Ceftaroline] : 26700

For reference, reported Cmax for CCO/N=C(\C(=O)N[C@@H]1C(=O)N2C(C(=O)[O-])=C(Sc3nc(-c4cc[n+](C)cc4)cs3)CS[C@H]12)c1nsc(NP(=O)(O)O)n1 [ceftaroline fosamil] stands at 2370

Turning to the following molecule.
// sample NC(=O)[C@@H]1CC[C@@H]2CN1C(=O)N2OS(=O)(=O)[O-].[Na+] [NXL-104] , its Cmax was 29100
